Where these numbers come from: PubChem BioAssay (NCI)

# Test system: SK-MEL-5 melanoma
# experimental_protocol: NCI-60 one-dose screen, 48 h
# condition_details: 10 µM unless noted
# Method: Growth inhibition of the SK-MEL-5 human tumor cell line is measured as a screen for anti-cancer activity. Cells are grown in 96 well plates and exposed to the test compound for 48 hours. Compounds are tested at a single concentration, which is 10^-5 M for most compounds. The reported endpoint is percent growth (GI% or GIPRCNT), where numbers from 0 - 100% represent growth inhibition, and numbers from -100% - 0 represent cell death. For example, a value of 40 represents 60% growth inhibition. […]
Compounds without any hit were thinned out: in the full panel of roughly 83,000, 20% have a hit. Active and inactive are the calls of the source. Rule for the calls: active = growth percent below 10; inactive = the rest.
Outcome codes: label 1 for active, label 0 for inactive

>>> qualitative_label("CC[N+](CC)(CCOCCOCC[N+](CC)(CC)Cc1ccc([N+](=O)[O-])cc1)Cc1ccc([N+](=O)[O-])cc1")
"label 0"
>>> qualitative_label("CC(CCC(=O)O)(NC(=O)c1ccc([N+](=O)[O-])cc1)C(=O)O (stereo not given)")
"label 0"
>>> qualitative_label("CCCc1cc(=O)n2c(C(=O)Nc3ccccc3OC)c(C(=O)Nc3ccc(F)cc3)sc2n1")
"label 0"
>>> qualitative_label("C[N+]1(CCc2ccccc2)CCC(CCC2CC[N+](C)(CCc3ccccc3)CC2)CC1 (stereo not given)")
"label 0"
>>> qualitative_label("COc1cccc(C2C(C#N)=C(N)Oc3cc(OC)ccc32)c1 (stereo not given)")
"label 1"
>>> qualitative_label("COc1ccc(-c2nn(-c3cccc(Cl)c3)cc2C2CC(c3ccccc3)=NN2C(C)=O)cc1 (stereo not given)")
"label 0"
>>> qualitative_label("O=C(Nc1ccc(Cl)cc1Cl)Nc1ccc(-c2cccnc2)cc1N1CCC(CO)CC1")
"label 0"
>>> qualitative_label("C=C(C)[C@H]1CC/C(C)=C/CC[C@]2(C)O[C@H]2CC/C(C=O)=C\\C1O (stereo not given in full)")
"label 0"
>>> qualitative_label("CCCc1cccc(CCC)c1O")
"label 0"
>>> qualitative_label("COc1cc2c(-c3nc4cc(Cl)c(F)cc4s3)cc(=O)oc2c(C)c1OC")
"label 1"

* * *

Catalogue of growth values
# System: MDA-MB-231 breast
# experimental_protocol: NCI-60 one-dose screen, 48 h (100 = growth as untreated, 0 = no growth, -100 = all killed)
# condition_details: 10 µM unless noted
Compounds without any hit were thinned out: in the full panel of roughly 83,000, 20% have a hit.
value_kind: growth (%)

>>> endpoint_value("CCN(CC)CCOc1ccccc1-n1c(C)ccc1-c1ccccc1")
102
>>> endpoint_value("C/C(=N/N=C(N)N)c1ccc(N)cc1")
104
>>> endpoint_value("N=C(N)/N=C(\\CCc1nc2ccccc2[nH]1)c1nc2ccccc2[nH]1")
100
>>> endpoint_value("O=C(Nc1ncc([N+](=O)[O-])s1)c1cccc([N+](=O)[O-])c1")
62.3
>>> endpoint_value("Cc1nn(-c2ccc(Br)cc2)c2nc3c(nc12)C(=O)C(=O)c1ccccc1-3")
78.7
>>> endpoint_value("N#Cc1c(N2CCOCC2)nc2sc3cc(Cl)ccc3n2c1=N")
75.9
>>> endpoint_value("Cn1cc(-c2nc(-c3c[nH]c4ncc(F)cc34)cs2)c2cccnc21")
68.8
>>> endpoint_value("C/C(=N/N=C(N)N)c1ccc(Cl)cc1")
84
>>> endpoint_value("CC(NC(=O)C(C)Oc1ccc(Cl)cc1Cl)C(=O)O (stereo unspecified)")
96.8
>>> endpoint_value("C=CC1=C(C(=O)O)N2C(=O)[C@@H](NC(=O)/C(=N\\O)c3csc(N)n3)[C@H]2SC1 (stereo in doubt)")
105
>>> endpoint_value("COc1cccc(CCC2C(=O)CCCC2=O)c1")
114

* * *

# System: OVCAR-5 ovarian
# experimental_protocol: NCI-60 one-dose screen, 48 h (100 = growth as untreated, 0 = no growth, -100 = all killed)
# condition_details: 10 µM unless noted
The panel holds about 83,000 compounds, 20% with a hit somewhere; the sample as a whole holds those more often.
Catalogue of growth values
value_kind: growth (%)

>>> endpoint_value("COc1ccc(Nc2nccc(N3CCN(c4c5ccc(Cl)cc5nc5ccc(OC)cc45)CC3)n2)cc1")
97.1
>>> endpoint_value("COc1ccc(/C=C2\\COc3ccc(O)c(O)c3C2=O)cc1OC")
-16.6
>>> endpoint_value("COc1ccc(-n2nnc(C(=O)O)c2-c2cc(OC)c(OC)c(OC)c2)cc1")
103
>>> endpoint_value("Clc1cc(Cl)c(OCC#CI)cc1Cl")
101
>>> endpoint_value("COc1ccc2nccc(/C=C/c3ccnc4ccc(OC)cc34)c2c1")
117
>>> endpoint_value("C[C@]12C[C@H](O)[C@H]3[C@@H](CCC4=CC(=O)CC[C@@]43C)[C@@H]1CC[C@@H]2C(=O)CO")
43.8
>>> endpoint_value("COc1cc(C2CC(c3ccc(C)cc3)=NN2C(C)=O)ccc1Oc1ccnc2cc(Cl)ccc12 (stereo not drawn)")
92
>>> endpoint_value("CN1CCN(CC(=O)Nc2nc3c(s2)Nc2cc(Cl)c(Cl)cc2NC3=O)CC1")
113
>>> endpoint_value("O=C(c1ccccc1)c1ccco1")
114
>>> endpoint_value("O=C(/C=C/c1cc2ccccc2[nH]c1=O)c1ccc(Cl)cc1")
55.9
>>> endpoint_value("C=C1c2c(C)nn(-c3ccc(C#CCOC4OC(CO)C(O)C(O)C4O)cc3)c2N(C)C23C[C@H]1C1(C)c4c(C)nn(-c5ccc(C#CCOC6OC(CO)C(O)C(O)C6O)cc5)c4N(C)C(C)(C[C@H]12)C3 (stereo partly drawn)")
51
>>> endpoint_value("CCC(C)CC(C)C(=O)c1c(O)ccn(O)c1=O (stereo not drawn)")
72.8
>>> endpoint_value("CNc1ccc(CSc2ccc(Cl)cc2)cc1")
90.2
>>> endpoint_value("COc1ccc(/C=N\\Nc2ccc([N+](=O)[O-])cn2)cc1OC")
22.2
>>> endpoint_value("O=C(OC[C@H]1O[C@H](OC(=O)c2cc(O)c(O)c(OC(=O)c3cc(O)c(O)c(O)c3)c2)[C@H](OC(=O)c2cc(O)c(O)c(OC(=O)c3cc(O)c(O)c(O)c3)c2)[C@@H](OC(=O)c2cc(O)c(O)c(OC(=O)c3cc(O)c(O)c(O)c3)c2)[C@@H]1OC(=O)c1cc(O)c(O)c(OC(=O)c2cc(O)c(O)c(O)c2)c1)c1cc(O)c(O)c(OC(=O)c2cc(O)c(O)c(O)c2)c1")
48.3
>>> endpoint_value("COc1ccc2c(c1)C(=O)c1c-2c(OCCCN(C)C)nc2cc(Br)ccc12")
-46
>>> endpoint_value("COc1cccc(C2C(C#N)=C(N)Oc3cc(OC)ccc32)c1 (stereo not drawn)")
34.4
>>> endpoint_value("Cc1ccc(C=C2C(Cl)=C(Cl)C(Cl)=C2Cl)cc1")
-80.7

* * *

# Test system: A549/ATCC NSCLC
# experimental_protocol: NCI-60 one-dose screen, 48 h (100 = growth as untreated, 0 = no growth, -100 = all killed)
# condition_details: 10 µM unless noted
# Protocol: Growth inhibition of the A549/ATCC human Non-Small Cell Lung tumor cell line is measured as a screen for anti-cancer activity. Cells are grown in 96 well plates and exposed to the test compound for 48 hours. Compounds are tested at a single concentration, which is 10^-5 M for most compounds. The reported endpoint is percent growth (GI% or GIPRCNT), where numbers from 0 - 100% represent growth inhibition, and numbers from -100% - 0 represent cell death. […]
Compounds without any hit were thinned out: in the full panel of roughly 83,000, 20% have a hit.
value_kind: growth (%)

>>> endpoint_value("Cn1[nH]cc(/C=N/C(N)=O)c1=O")
106
>>> endpoint_value("Cc1ccc(NC(=O)CSc2nnc3n(Cc4ccccc4)c(=O)c4c(C)c(C(N)=O)sc4n23)cc1")
77.7
>>> endpoint_value("COc1ccc(OC)c(/C=C/c2nc(=S)n(-c3ccc(Cl)cc3)[nH]2)c1")
66.3
>>> endpoint_value("C[n+]1c2ccccc2c(NC2CCNCC2)c2[nH]c3ccccc3c21")
1.98
>>> endpoint_value("CC(C)(C)c1cc(O)c(O)c(C(C)(C)C)c1")
20.9

* * *

# Test system: COLO 205 colon
# experimental_protocol: NCI-60 one-dose screen, 48 h (100 = growth as untreated, 0 = no growth, -100 = all killed)
# condition_details: 10 µM unless noted
The panel holds about 83,000 compounds, 20% with a hit somewhere; the sample as a whole holds those more often.
value_kind: growth (%)

>>> endpoint_value("Oc1ccccc1/C=N\\Nc1ccccc1")
115
>>> endpoint_value("N#CCCCCCn1c2ccccc2c2c3c(c4c5ccccc5[nH]c4c21)C(=O)N(O)C3=O")
26.7
>>> endpoint_value("CN(C)c1nc(N)nc(Cn2c(-c3nonc3N)nc3ccccc32)n1")
83.7
>>> endpoint_value("O=C(/C(=N/O)S(=O)(=O)c1ccccc1)c1cccs1")
104
>>> endpoint_value("CC(C)[C@H]1CC[C@H]2[C@@H](CC[C@H]3[C@](C)(CN)CCC[C@]23C)C1")
-82.6
>>> endpoint_value("O=C(C(Br)Br)C(Br)C(Br)c1ccccc1 (centres undefined)")
4.54
>>> endpoint_value("CC(=O)O[C@H]1C(=O)[C@@]2(C)C([C@H](OC(=O)c3ccccc3)[C@]3(O)C[C@H](OC(=O)[C@H](O)[C@@H](NC(=O)c4ccccc4)c4ccccc4)C(C)=C1C3(C)C)[C@]1(OC(C)=O)CO[C@@H]1C[C@@H]2O (some centres undefined)")
1.91
>>> endpoint_value("Cc1cccc(Cl)c1NC(=O)c1ccc2nc(NC(=O)NC3CC(C)(C)NC(C)(C)C3)sc2c1")
15.3
>>> endpoint_value("C[n+]1ccc(Nc2ccc(NC(=O)c3ccc(Nc4cc[n+](C)c5ccc(N)cc45)cc3)cc2)cc1")
92.8
>>> endpoint_value("COc1cc(/C=C2\\COc3ccc(O)cc3C2=O)cc(OC)c1")
81.6
>>> endpoint_value("C[C@]12CC[C@@H]3c4ccc(O)c([N+](=O)[O-])c4CC[C@H]3[C@@H]1CC[C@@H]2NS(=O)(=O)c1ccc(C(F)(F)F)cc1")
98
>>> endpoint_value("COc1cc(C(=O)/C=C/c2cccnc2Nc2ccccc2)cc(OC)c1OC")
-87.5
>>> endpoint_value("COc1ccc2nc(-c3ccc(-n4cncc4-c4ccc(OC)c(N)c4)cc3)sc2c1")
105
>>> endpoint_value("O=C(/C=C/c1ccc(O)c(O)c1)N1CCN(c2ccc(Cl)cc2)CC1")
71.4
>>> endpoint_value("CCOc1cc(-c2ccc[nH]2)[nH]c1/C=C1\\N=C(C)C(C(=O)OC)=C1C")
-78.6
>>> endpoint_value("CCSc1nnc2n(Cc3ccccc3)c(=O)c3c(C)c(C(N)=O)sc3n12")
121
>>> endpoint_value("Nc1ncc(-c2cnn(C3CCNCC3)c2)cc1-c1nc2cc(Cl)ccc2o1")
-100
>>> endpoint_value("C/C(=N\\N1CC(=O)NC1=O)c1ccc([N+](=O)[O-])o1")
108
>>> endpoint_value("O=C(O)c1ccccc1C(=O)OC1CCCC2CCCC21 (centres undefined)")
117
